The compounds listed here are annotated with their TGI.
# Tested on: SNB-19 CNS
# assayText: NCI tumour cell line growth inhibition, 48 h

Solved cases below.
1) CC(=O)NC1=C(Nc2ccc(C)cc2)C(=O)c2ccccc2C1=O | > 75 µM
2) Nc1ccccc1/C=C\c1ccccc1 | > 100 µM

Request: Entry N#Cc1ccc(/C=N/NC(=O)CSCC(=O)N/N=C/c2ccc(C#N)cc2)cc1 : reported TGI = ?
Response: > 100 µM

Request: Entry CC1(CO)OC1COCc1ccccc1 (configuration not stated) : reported TGI = ?
Response: > 100 µM

Request: Entry CC1(C)COCN1COC1CCCCC1 : reported TGI = ?
Response: > 100 µM

Request: Entry COc1ccc2c(c1)c(=O)c1c(NCCCN(C)CCCNc3ccc4c(=O)n(CCN(C)C)c(=O)n5c6ccc(OC)cc6c(=O)c3c45)ccc3c(=O)n(CCN(C)C)c(=O)n2c31 : reported TGI = ?
Response: 2.17 µM

Request: Entry c1nncn1C12C3C4C5C3C1C5C42 (configuration not stated) : reported TGI = ?
Response: > 100 µM

Request: Entry CC(=O)OCSc1ncnc2c1ncn2CN1CCOCC1 : reported TGI = ?
Response: > 100 µM

Request: Entry O=[N+]([O-])c1ccc(Sc2c3ccccc3nc3ccccc23)cc1 : reported TGI = ?
Response: > 100 µM

Request: Entry CCCCCCCCCNCCCCCCCCC : reported TGI = ?
Response: 9.83 µM

Request: Entry COC(=O)c1c(C)ccc2c(O)c3c(cc12)C(=O)c1c2c(cc(O)c1C3=O)C1(C)OC(C)(O2)C(O)C(N(C)C)C1O (configuration not stated) : reported TGI = ?
Response: 7.22 µM

Request: Entry c1cc2c(cc1C(N1CCNCC1)N1CCNCC1)OCO2 : reported TGI = ?
Response: > 100 µM

* * *

# Test system: U251 CNS
Pick one and only one: active, inactive

Previously resolved entries follow.
1) CC(=O)C1CC2(c3ccc(C)cc3)C(c3ccc(C)cc3)=C(c3ccc(C)cc3)C1(c1ccc(C)cc1)S2=O (stereo not drawn) | inactive
2) O=C(c1cc(F)c(Cl)cc1Cl)N1N=C(c2ccccc2)CC1(O)c1ccccc1 (stereo not drawn) | inactive
3) COC(=O)NC/C=C\c1nc(CC/C=C\C(=O)OC2CC3CC(=O)O[C@H](/C=C/CC(C)C)C[C@H]4CCC(C)C(C[C@H](OC)CC(C2)O3)O4)co1 (stereo partly drawn) | inactive
4) c1ccc2[nH]c(SSc3nc4ncncc4[nH]3)nc2c1 | inactive
5) COc1ccc(CNc2nc3cc(N)cc(N)c3nc2-c2ccccc2)cc1OC | inactive
6) CC(=O)OCC1OC(OC2CC3C(C)(C)C(OC(C)=O)CC[C@]3(C)C3CCC45CC4(CC[C@H]5C(C)CC(O)[C@@H](O)C(C)(C)O)[C@]23C)C(O)C(O)C1O (stereo partly drawn) | inactive
7) O=C1CCCCCCCC/C=C/CCC(c2ccco2)O1 (stereo not drawn) | inactive

Request: So what was the verdict on COc1c(C)c2c(c(O)c1C/C=C(\C)CCC(=O)OCCN1CCOCC1)C(=O)OC2 in this test?
Response: active

* * *

# Test system: MDA-N
# assayText: NCI tumour cell line growth inhibition, 48 h
quantityName: TGI (µM)
Hi! Could you send only the number? It should be in µM, unit omitted.

1) COc1ccc(OC)c(C(=O)/C=C/c2cc(O)c(O)cc2F)c1 | 0.534

The record that follows has no TGI shown yet.
Request: Entry CC(=O)c1cc2c(s1)C(=O)c1scc(C(C)=O)c1C2=O : reported TGI = ?
Response: 0.358
